biological target: G-protein coupled receptor 55 (Homo sapiens); test: Agonist activity at recombinant human GPR55 expressed in CHO cells assessed as increase in beta-arrestin recruitment incubated for 60 mins measured for 1 sec by luminescence assay; type: functional, cell-based
Please map values of %max to classes as shown: band A: < -10%; band B: ≥ -10% and < 20%; band C: ≥ 20%

These solved cases illustrate the format of a correct answer.
O=C1NC(SCc2ccc(Br)cc2)=N/C1=C\c1cccc(OCc2ccc(Cl)cc2)c1: band B
O=C1/C(=C/c2cccc(OCCCCCCOc3cccc(Cl)c3)c2)N=C2SCCCN12: band C
CN1C(=N)NC(=O)/C1=C/c1cccc(OCc2ccc(Cl)cc2)c1: band C

Query: Lab note: sort Cc1ccc(CSC2=N/C(=C\c3cccc(OCc4ccc(Cl)cc4)c3)C(=O)N2)cc1 into the matching %max band.
Reply: band A

Query: Lab note: sort CC(C)c1ccc(OCCCCCCOc2cccc(/C=C3\N=C4SCCCN4C3=O)c2)cc1 into the matching %max band.
Reply: band C

Query: Lab note: sort O=C1NC(=S)S/C1=C\c1cccc(OCc2ccc(Cl)cc2)c1 into the matching %max band.
Reply: band C

Query: Lab note: sort O=C1/C(=C/c2cccc(OCc3ccc(Cl)cc3)c2)N=C2SCCN12 into the matching %max band.
Reply: band B

Query: Lab note: sort O=C1NC(SCc2ccc(F)cc2)=N/C1=C\c1cccc(OCc2ccc(Cl)cc2)c1 into the matching %max band.
Reply: band A

Query: Lab note: sort O=C1/C(=C/c2cccc(OCCc3ccccc3)c2)N=C2SCCCN12 into the matching %max band.
Reply: band A

----------
molecular target: G-protein coupled receptor 55 (Homo sapiens); test: Agonist activity at recombinant human GPR55 expressed in CHO cells assessed as increase in beta-arrestin recruitment incubated for 60 mins measured for 1 sec by luminescence assay; assay type: functional, cell-based
Please use satisfied whenever %max is not below 20%, and not satisfied whenever it is.

These solved cases illustrate the format of a correct answer.
CCc1ccc(OCCCCCCOc2cccc(/C=C3\N=C4SCCCN4C3=O)c2)cc1: satisfied
O=C1/C(=C/c2cccc(OCCCCCCCOc3ccc(Cl)cc3)c2)N=C2SCCCN12: satisfied
O=C1/C(=C/c2cccc(OCCOc3ccc(Cl)cc3)c2)N=C2SCCCN12: not satisfied
O=C1/C(=C/c2cccc(OCCCCOc3ccc(Cl)cc3)c2)N=C2SCCCN12: not satisfied
O=C1/C(=C/c2cccc(OCCCc3ccccc3)c2)N=C2SCCCN12: not satisfied

Query: Is %max for Cc1ccc(COc2cccc(/C=C3\N=C4SCCCN4C3=O)c2)cc1 at or above 20%?
Reply: not satisfied

Query: Is %max for CSC1=N/C(=C\c2cccc(OCc3ccc(Cl)cc3)c2)C(=O)N1C at or above 20%?
Reply: not satisfied

Query: Is %max for O=C1NC(=O)/C(=C/c2cccc(OCc3ccc(Cl)cc3)c2)S1 at or above 20%?
Reply: satisfied

Query: Is %max for O=C1/C(=C/c2cccc(OCCCCCCCCOc3ccc(Cl)cc3)c2)N=C2SCCCN12 at or above 20%?
Reply: not satisfied

Query: Is %max for CSC1=NC(=O)/C(=C/c2cccc(OCc3ccc(Cl)cc3)c2)N1 at or above 20%?
Reply: not satisfied

----------
target: N-arachidonyl glycine receptor (Homo sapiens) (UniProt Q14330); assay: Antagonist activity at recombinant human GPR18 expressed in CHO cells assessed as inhibition of delta9-THC-induced beta-arrestin recruitment preincubated for 60 mins followed by delta9-THC addition for 90 mins measured for 1 sec by luminescence assay; type: functional, cell-based
Sequence (Q14330 whole entry): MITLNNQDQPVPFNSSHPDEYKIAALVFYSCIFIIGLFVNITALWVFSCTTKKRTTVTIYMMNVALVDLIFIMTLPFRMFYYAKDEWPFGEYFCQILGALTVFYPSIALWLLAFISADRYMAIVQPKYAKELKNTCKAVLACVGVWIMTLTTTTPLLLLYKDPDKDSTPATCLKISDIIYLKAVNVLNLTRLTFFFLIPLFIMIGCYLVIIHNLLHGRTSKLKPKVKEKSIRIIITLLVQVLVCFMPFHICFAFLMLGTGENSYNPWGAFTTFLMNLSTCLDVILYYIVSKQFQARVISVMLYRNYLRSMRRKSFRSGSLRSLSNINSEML
// assign Criterion met if Imax falls strictly below 40%, else Criterion not met (ties count as Criterion not met)

O=C1NC(SCc2ccccc2)=N/C1=C\c1cccc(OCc2ccc(Cl)cc2)c1: Criterion met
O=C1NC(SCc2ccc(Cl)cc2)=N/C1=C\c1cccc(OCc2ccc(Cl)cc2)c1: Criterion met
O=C1NC(SCCc2ccccc2)=N/C1=C\c1cccc(OCc2ccc(Cl)cc2)c1: Criterion not met

Query: Regarding Cc1ccc(CSC2=N/C(=C\c3cccc(OCc4ccc(Cl)cc4)c3)C(=O)N2C)cc1 , kindly confirm whether its Imax is beneath 40%.
Reply: Criterion met

Query: Regarding O=C1NC(SCc2ccc(Br)cc2)=N/C1=C\c1cccc(OCc2ccc(Cl)cc2)c1 , kindly confirm whether its Imax is beneath 40%.
Reply: Criterion not met

Query: Regarding Cc1ccc(CSC2=N/C(=C\c3cccc(OCc4ccc(Cl)cc4)c3)C(=O)N2)cc1 , kindly confirm whether its Imax is beneath 40%.
Reply: Criterion met

----------
target: Cannabinoid receptor 2 (Homo sapiens, UniProt P34972); assay: Displacement of [3H]CP55940 from recombinant human CB2 receptor expressed in CHO cell membranes after 2 hrs by liquid scintillation counting method; parameters: concentration or dose not given beside the values; conditions: concentration not given here
Sequence (P34972 whole entry): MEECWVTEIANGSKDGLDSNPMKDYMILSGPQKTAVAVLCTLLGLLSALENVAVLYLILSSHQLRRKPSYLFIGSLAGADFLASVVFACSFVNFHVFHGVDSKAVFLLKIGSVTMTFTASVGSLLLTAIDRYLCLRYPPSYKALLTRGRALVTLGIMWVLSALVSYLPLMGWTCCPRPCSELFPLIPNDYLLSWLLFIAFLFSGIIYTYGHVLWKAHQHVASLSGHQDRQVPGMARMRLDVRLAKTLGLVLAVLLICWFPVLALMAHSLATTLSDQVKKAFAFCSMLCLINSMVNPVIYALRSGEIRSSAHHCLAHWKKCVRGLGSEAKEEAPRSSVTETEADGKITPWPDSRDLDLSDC
readout: inhibition (%)
API: value field is a number in %; no unit string.

Below are worked cases with known answers.
O=C1NC(SCc2ccc(Cl)cc2)=N/C1=C\c1cccc(OCc2ccc(Cl)cc2)c1: 30
O=C1/C(=C/c2cccc(OCCCCCCOc3ccccc3Cl)c2)N=C2SCCCN12: 29
O=C1NC(SCc2ccccc2)=N/C1=C\c1cccc(OCc2ccc(Cl)cc2)c1: 46
O=C1N=C2SCCN2/C1=C\c1cccc(OCc2ccc(Cl)cc2)c1: 41
O=C1/C(=C/c2cccc(OCCCCOc3ccc(Cl)cc3)c2)N=C2SCCCN12: 3

The observed inhibition for O=C1NC(=S)S/C1=C\c1cccc(OCc2ccc(Cl)cc2)c1 when tested with Cannabinoid receptor 2 (Homo sapiens, UniProt P34972) stands at 26

The observed inhibition for CSC1=N/C(=C\c2cccc(OCc3ccc(Cl)cc3)c2)C(=O)N1C when tested with Cannabinoid receptor 2 (Homo sapiens, UniProt P34972) stands at 24

----------
target: UniProtKB P21554; experiment: Displacement of [3H]CP55940 from recombinant human CB1 receptor expressed in CHO cell membranes after 2 hrs by liquid scintillation counting method
Sequence (P21554 whole entry): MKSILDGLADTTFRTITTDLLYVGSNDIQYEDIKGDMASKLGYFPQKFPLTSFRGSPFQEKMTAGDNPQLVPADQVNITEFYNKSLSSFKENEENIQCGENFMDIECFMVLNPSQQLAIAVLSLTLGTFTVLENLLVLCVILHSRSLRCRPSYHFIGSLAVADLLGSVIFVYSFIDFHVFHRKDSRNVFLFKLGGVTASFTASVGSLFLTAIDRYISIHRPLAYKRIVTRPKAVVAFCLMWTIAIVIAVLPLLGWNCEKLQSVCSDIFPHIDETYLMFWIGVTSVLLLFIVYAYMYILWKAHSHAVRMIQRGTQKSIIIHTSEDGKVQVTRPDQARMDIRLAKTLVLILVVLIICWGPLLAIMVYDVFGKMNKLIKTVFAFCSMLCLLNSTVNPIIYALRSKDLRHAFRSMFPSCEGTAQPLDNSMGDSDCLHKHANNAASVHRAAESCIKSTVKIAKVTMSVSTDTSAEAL
pKi: −log10 of the molar value.
The entries below are paired with their reported pKi.

O=C1NC(=O)/C(=C/c2cccc(OCc3ccc(Cl)cc3)c2)S1: 5.30
O=C1NC(SCCc2ccccc2)=N/C1=C\c1cccc(OCc2ccc(Cl)cc2)c1: < 5.00
O=C1/C(=C/c2cccc(OCCCCCOc3ccc(Cl)cc3)c2)N=C2SCCCN12: < 5.00
CC(C)c1ccc(OCCCCCCOc2cccc(/C=C3\N=C4SCCCN4C3=O)c2)cc1: < 5.00
Cc1ccc(CSC2=N/C(=C\c3cccc(OCc4ccc(Cl)cc4)c3)C(=O)N2)cc1: < 5.00
Cc1cccc(C)c1OCCCCCCOc1cccc(/C=C2\N=C3SCCCN3C2=O)c1: < 5.00

pKi reading for Cc1ccc(OCCCCCCOc2cccc(/C=C3\N=C4SCCCN4C3=O)c2)cc1 : < 5.00

pKi reading for O=C1/C(=C/c2cccc(OCCCCCCCOc3ccc(Cl)cc3)c2)N=C2SCCCN12 : < 5.00

pKi reading for CCc1ccc(OCCCCCCOc2cccc(/C=C3\N=C4SCCCN4C3=O)c2)cc1 : < 5.00

pKi reading for O=C1NC(SCc2ccc(Cl)cc2)=N/C1=C\c1cccc(OCc2ccc(Cl)cc2)c1 : < 5.00

pKi reading for O=C1/C(=C/c2cccc(OCCCCCCCCOc3ccc(Cl)cc3)c2)N=C2SCCCN12 : < 5.00

----------
target: G-protein coupled receptor 55 (Homo sapiens, UniProt Q9Y2T6); test: Antagonist activity at recombinant human GPR55 expressed in CHO cells assessed as inhibition of lysophosphatidylinositol-induced beta-arrestin recruitment preincubated for 60 mins followed by lysophosphatidylinositol addition for 90 mins measured for 1 sec by luminescence assay
Sequence (Q9Y2T6 whole entry): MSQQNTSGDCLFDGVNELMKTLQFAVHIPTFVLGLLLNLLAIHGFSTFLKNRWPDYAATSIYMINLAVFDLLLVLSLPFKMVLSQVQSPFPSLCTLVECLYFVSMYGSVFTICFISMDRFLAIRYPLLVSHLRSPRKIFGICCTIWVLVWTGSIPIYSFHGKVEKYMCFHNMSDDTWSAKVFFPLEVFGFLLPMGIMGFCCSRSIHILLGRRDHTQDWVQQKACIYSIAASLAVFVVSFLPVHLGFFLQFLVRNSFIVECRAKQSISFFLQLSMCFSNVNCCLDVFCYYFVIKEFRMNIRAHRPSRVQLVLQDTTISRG
pIC50: −log10 of the molar value.
readout: pIC50

O=C1NC(SCCc2ccccc2)=N/C1=C\c1cccc(OCc2ccc(Cl)cc2)c1: < 5.00

pIC50 reading for Cc1ccc(COc2cccc(/C=C3\N=C4SCCCN4C3=O)c2)cc1 : 5.02

pIC50 reading for O=C1NC(SCc2ccccc2)=N/C1=C\c1cccc(OCc2ccc(Cl)cc2)c1 : < 5.00

pIC50 reading for CSC1=N/C(=C\c2cccc(OCc3ccc(Cl)cc3)c2)C(=O)N1C : < 5.00

pIC50 reading for O=C1/C(=C/c2cccc(OCCCCCCCOc3ccc(Cl)cc3)c2)N=C2SCCCN12 : < 5.00

pIC50 reading for O=C1/C(=C/c2cccc(OCCOc3ccc(Cl)cc3)c2)N=C2SCCCN12 : 5.00

----------
target: G-protein coupled receptor 55 (Homo sapiens); test: Agonist activity at recombinant human GPR55 expressed in CHO cells assessed as increase in beta-arrestin recruitment incubated for 60 mins measured for 1 sec by luminescence assay; format: functional, cell-based
The entries below are paired with their reported %max.
Write your answer as a measured quantity: the number, then the unit.

Below are worked cases with known answers.
O=C1N=C2SCCN2/C1=C\c1cccc(OCc2ccc(Cl)cc2)c1: 2%
O=C1NC(SCc2ccccc2)=N/C1=C\c1cccc(OCc2ccc(Cl)cc2)c1: 21%

Now let's try a different one.
The observed %max for O=C1NC(SCCc2ccccc2)=N/C1=C\c1cccc(OCc2ccc(Cl)cc2)c1 when tested with G-protein coupled receptor 55 (Homo sapiens) stands at 21%
